Parameter cell viability: see the listing below.
- Tested on: NOMO1
- Assay method text: cell viability relative to DMSO control; higher = less cytotoxic
- Settings: HPLM + 10% dialyzed FBS; 48 h; 15.4 µM

# Smiles record, Tested target, Value units, cell viability
rows = [
    ("NC[C@H]1O[C@H](O[C@@H]2[C@H](O)[C@@H](O[C@H]3O[C@H](CO)[C@@H](O)[C@H](N)[C@H]3O)[C@H](N)C[C@@H]2N)[C@H](O)[C@@H](O)[C@@H]1O", "NOMO1", "%", 121),
    ("Oc1nc(-c2ccc(C(F)(F)F)cc2)nc2c1CSCC2", "NOMO1", "%", 94),
    ("O=P(O)(O)C(O)(Cn1ccnc1)P(=O)(O)O", "NOMO1", "%", 111),
    ("CCOC(=O)\\C1=C\\[C@]2(CC)CCCN3CCC4=C([C@H]23)[N]1C5=C4C=CC=C5", "NOMO1", "%", 126),
]
